ΔTm, Serine/threonine-protein kinase OSR1 (Homo sapiens) (UniProt O95747): measured values
Numbers only, in °C.

Examples with their reported ΔTm follow.
Entry O=c1c2ccccc2[nH]c(=S)n1CCN1CCC(=C(c2ccc(F)cc2)c2ccc(F)cc2)CC1 : reported ΔTm = ?
2.4

# repeat for NC1=NC(=O)/C(=C2\CCNC(=O)c3[nH]c(Br)cc32)N1
0.5

# repeat for O=C1Nc2ccc(I)cc2/C1=C1/Nc2ccccc2/C1=N\O
-1.3

Look up ΔTm for the entries below, preserving their order.
1. Oc1ccc(-c2nc(-c3ccc(F)cc3)c(-c3ccncc3)[nH]2)cc1
2. COc1cc(C[C@H]2C(=O)OC[C@@H]2Cc2ccc(OC)c(OC)c2)ccc1O
3. CCN(CC)CCNC(=O)c1c(C)[nH]c(/C=C2\C(=O)Nc3ccc(F)cc32)c1C

0.9
-0.1
3

---

ΔTm, Serine/threonine-protein kinase PLK4 (Homo sapiens) (UniProt O00444): measured values
Answers are plain numbers, in °C.

Query the reported ΔTm for Serine/threonine-protein kinase PLK4 (Homo sapiens) (UniProt O00444); item: O=C1NC(=O)C(c2cn(CCCn3ccnc3)c3ccccc23)=C1Nc1ccccc1
0.8

# repeat for Nc1ncnc2c1c(I)cn2[C@@H]1O[C@H](CO)[C@@H](O)[C@H]1O
2.9

Kindly consider the entry below.
Query the reported ΔTm for Serine/threonine-protein kinase PLK4 (Homo sapiens) (UniProt O00444); item: O=C(O)Cc1ccc(O)c([N+](=O)[O-])c1
0.8

---

molecular target: Ribosomal protein S6 kinase alpha-3 (Homo sapiens) (UniProt P51812)
Sequence (P51812 whole entry): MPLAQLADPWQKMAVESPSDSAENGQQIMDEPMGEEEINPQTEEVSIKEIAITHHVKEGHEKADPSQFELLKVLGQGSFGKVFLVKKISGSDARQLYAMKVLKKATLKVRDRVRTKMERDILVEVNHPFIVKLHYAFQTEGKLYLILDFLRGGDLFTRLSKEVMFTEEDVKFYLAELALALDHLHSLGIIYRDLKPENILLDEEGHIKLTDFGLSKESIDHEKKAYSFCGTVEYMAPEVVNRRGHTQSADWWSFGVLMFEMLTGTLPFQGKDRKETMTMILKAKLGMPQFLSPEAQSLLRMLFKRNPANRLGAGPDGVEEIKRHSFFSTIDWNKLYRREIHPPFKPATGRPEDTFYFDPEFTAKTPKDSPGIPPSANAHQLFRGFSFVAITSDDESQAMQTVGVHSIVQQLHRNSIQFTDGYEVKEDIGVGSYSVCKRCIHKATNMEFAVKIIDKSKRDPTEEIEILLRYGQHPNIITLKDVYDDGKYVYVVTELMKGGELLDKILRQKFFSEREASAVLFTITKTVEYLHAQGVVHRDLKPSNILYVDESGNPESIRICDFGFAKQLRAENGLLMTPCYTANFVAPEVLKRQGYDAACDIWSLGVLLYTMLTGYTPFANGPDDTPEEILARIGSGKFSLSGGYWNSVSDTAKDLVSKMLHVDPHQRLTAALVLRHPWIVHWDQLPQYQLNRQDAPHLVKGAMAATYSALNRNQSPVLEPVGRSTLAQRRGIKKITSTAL
Please mark label 1 if the recorded ΔTm is equal to or greater than 1 °C, and label 0 if it falls below.

Here are 8 compounds together with their reported answers.
Identify whether the reported ΔTm of the following compound is 1 °C or greater: OC[C@H]1O[C@@H](n2cnc3cc(Cl)c(Cl)cc32)[C@H](O)[C@@H]1O
label 1

# repeat for O=[N+]([O-])c1ccc(-c2nc(-c3ccc(F)cc3)c(-c3ccncc3)[nH]2)cc1
label 1

# repeat for CC(C)(C)n1nc(-c2cccc3ccccc23)c2c(N)ncnc21
label 1

# repeat for Cc1cncc2cccc(S(=O)(=O)N3CCCNC[C@@H]3C)c12
label 1

# repeat for Cc1ccc(NC2=CC(=O)c3sc(C)nc3C2=O)cc1
label 0

# repeat for CC[C@H](CO)Nc1nc(NCc2ccccc2)c2ncn(C(C)C)c2n1
label 1

# repeat for CN(C)c1ncnc2nc[nH]c12
label 0

# repeat for Oc1ccc(-c2nc(-c3ccc(F)cc3)c(-c3ccncc3)[nH]2)cc1
label 0

Next up:
Identify whether the reported ΔTm of the following compound is 1 °C or greater: Cc1nc(N)sc1-c1ccnc(Nc2cccc([N+](=O)[O-])c2)n1
label 1

---

ΔTm, Serine/threonine-protein kinase 38 (Homo sapiens) (UniProt Q15208): measured values
Give bare numbers, in °C.

Examples with their reported ΔTm follow.
Entry O=C1Nc2ccccc2/C1=C1/Nc2ccccc2/C1=N\O : reported ΔTm = ?
3.8

# repeat for CN1CCc2[nH]c(=S)c(C#N)c(-c3cccs3)c2C1
0.5

Look up ΔTm for the entries below, preserving their order.
1. COc1nccc(-c2c(-c3ccc(F)cc3)ncn2[C@H]2CC[C@H](O)CC2)n1
2. CCOc1ccc(/C=C2/SC(=O)N(CCN)C2=O)cc1

0.4
0.5

Look up ΔTm for the entries below, preserving their order.
1. O=C(O)Cc1ccc(O)c([N+](=O)[O-])c1
2. O=C1Cc2c([nH]c3ccc([N+](=O)[O-])cc23)-c2ccccc2N1
3. CN(C)CC1CCn2c(c(C3=C(c4c[nH]c5ccccc45)C(=O)NC3=O)c3ccccc32)C1 (centres undefined)
4. O=C1NC(=O)C(c2cn(CCCn3ccnc3)c3ccccc23)=C1Nc1ccccc1
5. COc1cc(C[C@H]2C(=O)OC[C@@H]2Cc2ccc(OC)c(OC)c2)ccc1O

1. 2
2. 1.8
3. 0.3
4. 0.7
5. 0.5

Look up ΔTm for the entries below, preserving their order.
1. COC1=C2C[C@@H](C)C[C@H](OC)[C@H](O)[C@@H](C)/C=C(\C)[C@H](OC(N)=O)[C@@H](OC)/C=C\C=C(/C)C(=O)NC(=CC1=O)C2=O
2. COc1cc2ncnc(Nc3ccc(NC(=O)c4ccccc4)cc3)c2cc1OC
3. N#C/C(=C\c1ccc(O)c(O)c1)C(=O)NCc1ccccc1
4. Nc1n[nH]c2nc3ccccc3nc12
5. O=C1C=C2C(=Nc3c2c2c(c4c3=NC3=C4CCC=C3)C=NC=2)CC1
6. Cc1nc(N)sc1-c1ccnc(Nc2cccc([N+](=O)[O-])c2)n1
7. COc1ccc(CNC(=O)Nc2ncc([N+](=O)[O-])s2)cc1
8. O=c1sn(Cc2ccccc2)c(=S)n1Cc1ccccc1

0.2
0.9
0.1
0.4
3.6
0.6
0.1
0.4

Look up ΔTm for the entries below, preserving their order.
1. Cc1ccc(NC(=O)c2ccc(CN3CCN(C)CC3)cc2)cc1Nc1nccc(-c2cccnc2)n1
2. CCOc1cc(/C=C(\C#N)C(N)=O)cc(CSc2ccccc2)c1O

0.7
0.3

Look up ΔTm for the entries below, preserving their order.
1. COc1cccc(-c2cc(=O)c3ccccc3o2)c1N
2. Cl.Cn1cc(C2=C(c3ccc4cc5n(c4c3)CCC(CN)C5)C(=O)NC2=O)c2ccccc21 (centres undefined)
3. CC(C)n1cnc2c(NCc3ccccc3)nc(NCCCO)nc21

1: 0.2; 2: 0.4; 3: 0.3

Look up ΔTm for the entries below, preserving their order.
1. NC1=NC(=O)/C(=C2\CCNC(=O)c3[nH]c(Br)cc32)N1
2. O=S(=O)(NCCNC/C=C/c1ccc(Br)cc1)c1cccc2cnccc12
3. CN[C@@H]1CC2O[C@@](C)([C@@H]1OC)n1c3ccccc3c3c4c(c5c6ccccc6n2c5c31)C(=O)NC4
4. CN(C)c1ccc(CC2C(=O)Nc3ccccc32)cc1 (centres undefined)
5. C#Cc1cccc(Nc2ncnc3cc(OCCOC)c(OCCOC)cc23)c1
6. O=c1cc(N2CCOCC2)oc2c(-c3ccccc3)cccc12

1
1.7
5.7
1.5
-0.3
0.6

Look up ΔTm for the entries below, preserving their order.
1. CN(C)CCCn1cc(C2=C(c3c[nH]c4ccccc34)C(=O)NC2=O)c2ccccc21
2. CC(C)[C@H](CO)Nc1nc(Nc2cc(N)cc(Cl)c2)c2ncn(C(C)C)c2n1
3. N#CC(C#N)=Cc1ccc(O)c(O)c1
4. CC(C)(C)n1nc(-c2ccc(Cl)cc2)c2c(N)ncnc21
5. Cn1cc(/C=C2/C(=O)Nc3ccc(S(N)(=O)=O)cc32)c2ccccc21
6. Cc1cc(Nc2nc(-c3ccccc3)nc3ccccc23)n[nH]1

0.3
0.6
0.2
0.7
3.6
4

---

ΔTm, Ribosomal protein S6 kinase alpha-3 (Homo sapiens) (UniProt P51812): measured values
One number for each entry, in °C.

Examples with their reported ΔTm follow.
Entry NCCNS(=O)(=O)c1cccc2c(Cl)cccc12 : reported ΔTm = ?
0.5

# repeat for Cc1ccc(NC(=O)c2ccc(CN3CCN(C)CC3)cc2)cc1Nc1nccc(-c2cccnc2)n1
2.1

Kindly consider the entry below.
Entry O=c1c2ccccc2[nH]c(=S)n1CCN1CCC(=C(c2ccc(F)cc2)c2ccc(F)cc2)CC1 [DIACYLGLYCEROL KINASE INHIBITOR II] : reported ΔTm = ?
1.2

---

ΔTm, Lymphokine-activated killer T-cell-originated protein kinase (Homo sapiens): measured values

Entry CC(C)(C)c1cc(C=C2C(=O)C=CC2=O)cc(C(C)(C)C)c1O : reported ΔTm = ?
-0.1 °C

# repeat for O=[N+]([O-])c1ccc(-c2nc(-c3ccc(F)cc3)c(-c3ccncc3)[nH]2)cc1
0.3 °C

# repeat for Cc1[nH]c(/C=C2\C(=O)Nc3ccc(S(=O)(=O)N(C)c4cccc(Cl)c4)cc32)c(C)c1C(=O)N1CCN(C)CC1
0.1 °C

Look up ΔTm for the entries below, preserving their order.
1. O=c1c2ccccc2[nH]c(=S)n1CCN1CCC(=C(c2ccc(F)cc2)c2ccc(F)cc2)CC1 [DIACYLGLYCEROL KINASE INHIBITOR II]
2. CC(C)n1cnc2c(NCc3ccccc3O)nc(NCCCO)nc21
3. CN(C)S(=O)(=O)c1ccc2c(c1)/C(=C/c1cc3c([nH]1)CCCC3)C(=O)N2

["0.1 °C", "0.7 °C", "1 °C"]

Look up ΔTm for the entries below, preserving their order.
1. O=C1Nc2ccccc2/C1=C1/Nc2ccccc2/C1=N\O
2. C[C@@H]1C[C@H]2O[C@@H]2/C=C\C=C\C(=O)Cc2c(Cl)c(O)cc(O)c2C(=O)O1 [RADICICOL]
3. Cc1c2ccncc2c(C)c2c1[nH]c1ccccc12 [ELLIPTECINE]
4. Nc1n[nH]c2nnc(-c3c(-c4ccccc4)nn4ccccc34)cc12
5. O=C1Nc2ccccc2/C1=C/c1cnc[nH]1
6. CCCNC(=O)Nc1ccc(Oc2ncnc3cc(OC)c(OC)cc23)cc1Cl [KRN-633]
7. CN(C)C[C@@H]1CCn2cc(c3ccccc32)C2=C(C(=O)NC2=O)c2cn(c3ccccc23)CCO1 [RUBOXISTAURIN]

0 °C
0.2 °C
0.3 °C
0.2 °C
0.1 °C
0.2 °C
0.9 °C
